target: T1, recombinant endoglin (BIAcore analyte, Example 2) (UniProt P17813 26-586, limits assumed)
T1 sequence (looked up): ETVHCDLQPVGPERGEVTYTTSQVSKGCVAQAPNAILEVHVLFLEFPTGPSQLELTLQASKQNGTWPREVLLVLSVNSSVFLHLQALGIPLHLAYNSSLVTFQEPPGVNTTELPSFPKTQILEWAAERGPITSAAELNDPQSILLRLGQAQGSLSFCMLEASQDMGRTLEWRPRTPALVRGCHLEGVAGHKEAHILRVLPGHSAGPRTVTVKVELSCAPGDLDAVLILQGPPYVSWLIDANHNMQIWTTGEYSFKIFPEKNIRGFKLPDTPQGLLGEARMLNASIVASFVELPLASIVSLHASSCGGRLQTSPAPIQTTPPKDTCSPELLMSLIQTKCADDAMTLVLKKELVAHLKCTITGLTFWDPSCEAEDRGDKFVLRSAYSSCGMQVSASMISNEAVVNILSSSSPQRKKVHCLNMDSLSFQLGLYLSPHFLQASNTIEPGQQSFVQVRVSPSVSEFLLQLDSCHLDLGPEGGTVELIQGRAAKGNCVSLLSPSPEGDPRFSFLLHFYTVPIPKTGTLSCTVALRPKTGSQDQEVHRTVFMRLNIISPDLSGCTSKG
assay.remarks: SPR (BIAcore), antibody captured on protein A, recombinant endoglin as analyte
Below is a list of entries, each paired with its recorded koff value.
parameter: koff (s⁻¹)

- binder: "humanized/deimmunized anti-endoglin antibody VK1AAVH1R (antibody, human IgG1, V domains shown) VH: EVQLVESGGGLVKPGGSLRLSCAASGFTFSDAWMDWVRQAPGKGLEWVGEIRSRASNHATYYAESVKGRFTISRDDSKNTLYLQMNSLKTEDTAVYYCTRWRRFFDSWGQGTLVTVSS VL: DIQMTQSPSSLSASVGDRATITCRASSSVSYMHWYQQKPGKAPKPWAYATSNLASGVPSRFSGSGSGTDYTLTISSLQPEDFATYYCQQWSSNPLTFGGGTKVEIK"
  assay.value: "3.41e-05"
- binder: "humanized/deimmunized anti-endoglin antibody VK1AAVH1Q (antibody, human IgG1, V domains shown) VH: EVQLVESGGGLVKPGGSLRLSCAASGFTFSDAWMDWVRQAPGKGLEWVGEIRSQASNHATYYAESVKGRFTISRDDSKNTLYLQMNSLKTEDTAVYYCTRWRRFFDSWGQGTLVTVSS VL: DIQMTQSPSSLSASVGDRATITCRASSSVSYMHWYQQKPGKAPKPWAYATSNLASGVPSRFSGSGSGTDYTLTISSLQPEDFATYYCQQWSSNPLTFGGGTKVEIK"
  assay.value: "3.03e-05"
- binder: "humanized/deimmunized anti-endoglin antibody VK1AAVH1A2 (antibody, V domains shown, It has the same variable domains as TRC205, which is IgG4) VH: EVQLVESGGGLVKPGGSLRLSCAASGFTFSDAWMDWVRQAPGKGLEWVGEARSKASNHATYYAESVKGRFTISRDDSKNTLYLQMNSLKTEDTAVYYCTRWRRFFDSWGQGTLVTVSS VL: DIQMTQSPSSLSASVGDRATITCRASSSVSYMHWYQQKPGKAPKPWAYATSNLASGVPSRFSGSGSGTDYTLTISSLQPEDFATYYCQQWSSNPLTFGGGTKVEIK"
  assay.value: "3.25e-05"
